Reported GI50 values follow for various molecules
# Test system: HOP-92 NSCLC
# test-protocol: NCI tumour cell line growth inhibition, 48 h

| molecule | GI50 |
| --- | --- |
| CC1=C(C(=O)Nc2ccc(F)c(Cl)c2)C(c2ccc(Cl)cc2)NC(=O)N1 (stereo not drawn) | 11.8 µM |
| C=C(CNCCO)[C@@H]1CC[C@]2(CO)CC[C@]3(C)[C@H](CC[C@@H]4[C@@]5(C)CCC(N)C(C)(C)[C@@H]5CC[C@]43C)[C@@H]12 (stereo partly drawn) | 1.29 µM |
| CNC(=O)c1cc(Oc2ccc3nc(NC(=O)Nc4ccc(Cl)c(C(F)(F)F)c4)sc3c2)ccn1 | 1.15 µM |
| CCOc1ccccc1-n1c(CN2CCN(C(=O)COc3ccc(CNCCCCCCN4C5CCCC4CC(OC(=O)Nc4cc(C)ccc4OC)C5)cc3)CC2)nc2ccccc2c1=O (stereo not drawn) | 1.37 µM |
| COc1cc2c(c(OC)c1O)C(=O)C(OC)C(c1ccc(O)c(O)c1)O2 (stereo not drawn) | 0.697 µM |
| C[C@@H](CS(C)(=O)=O)Nc1ncc2cc(Oc3ccc(F)cc3F)c(=O)n(C)c2n1 | > 6.75 µM |
| COc1cc(C(=O)/C=C/c2sc(Cl)nc2Cl)cc(OC)c1OC | 1.6 µM |
| Cc1cnc(NC(=O)C(Cc2ccccc2)NC(=O)c2ccccc2)s1 (stereo not drawn) | 29.9 µM |

* * *

# Test system: SK-MEL-28 melanoma
# test-protocol: NCI tumour cell line growth inhibition, 48 h
Catalogue of compounds with associated TGI

| compound | TGI |
| --- | --- |
| S=C1NCCN1 | > 100 µM |
| Cc1ccc2c(c1)[nH]c(=S)n2C=C(C(N)=O)C(N)=O | > 100 µM |
| CC(=O)c1cccc(Nc2nc3ccccc3c3occc23)c1 | > 100 µM |
| CN(C)CCCNC1=C(Cl)C(=O)c2ccccc2C1=O | 3.41 µM |
| C=Cc1nc2c(Cl)ncnc2n1Cc1ccccc1 | 11.3 µM |
| C=CC[C@H]1O[Si](C(C)(C)C)(C(C)(C)C)[C@H](C)[C@H]1C | > 100 µM |
| COc1cc(/C=C/c2cc(/C=C/c3ccc(O)c(OC)c3)n(C(=O)Nc3ccc(F)cc3)n2)ccc1O | 7.84 µM |
| CC1=C(C(=O)Nc2ccccc2C)C(c2ccco2)C(C(=O)Nc2ccccc2C)=C(C)N1C | > 100 µM |
| c1cc2c(cc1NC1=NCCO1)CCC2 | > 10 µM |
| O=C(O)CCSC(=O)Nc1cccc(F)c1 | > 100 µM |
| CN1Cc2ccccc2S(=O)(=O)n2cccc2C1=O | > 100 µM |
| O=C1/C(=C/c2ccc([N+](=O)[O-])cc2)COc2ccc(O)c(O)c21 | 4.61 µM |
| Cc1ccc(Cc2n[nH]c(=O)[nH]2)cc1 | > 100 µM |
| O=C1N(Cl)C(=O)C(c2ccc(Cl)cc2)(c2ccc(Cl)cc2)N1Cl | > 100 µM |
| Cc1ccc(-c2nnc(-c3ccc4ccccc4c3)o2)cc1 | > 100 µM |
| O=C(C1OC1c1ccc(Cl)cc1)C12CC3CC(CC(C3)C1)C2 (configuration not stated) | 32.5 µM |
| CC1(C)COC(c2ccc(C(F)(F)F)cc2C(O)c2ccc3ccccc3c2)=N1 (configuration not stated) | > 100 µM |
| CC(C)c1ccc(C(C)C(=O)N(CC2=C(C(C)c3ccccn3)c3ccccc3C2)C(C)C)cc1 (configuration not stated) | 66.2 µM |
| COc1ccc(NC(=O)c2cc(OC)cc(OC)c2)cc1 | > 100 µM |
| CC(C)=C1C(=O)C[C@]2(C)C[C@H]3O[C@]3(C)CC[C@@H]3O[C@@]3(C)CC[C@@H]12 | > 50 µM |
| CSC1=C(C#N)C(=S)N=C(N)C1C(=O)Nc1ccc(C)cc1 (configuration not stated) | > 100 µM |
| CSC(=N/C=C/c1ccccc1)SC | > 100 µM |
| CC1CN1P1(N2CC2C)=NP(N2CC2C)(N2CC2C)=NP(N2CC2C)(N2CC2C)=N1 (configuration not stated) | > 50 µM |
| CC(=O)Oc1c(C)c2c(c3ncccc13)OC(C)C2 (configuration not stated) | 26.8 µM |
| COc1ccc(N2CN3OC(=O)N(c4ccc(OC)cc4)[C@@]3(c3ccccc3)C2)cc1 | > 100 µM |
| CN1CCc2cc3c(c4c2C1C(O)c1ccccc1-4)OCO3 (configuration not stated) | 85.7 µM |
| CCN(CC)CC(C(=O)Nc1c(C)cccc1C)/C(C)=N\NC(=O)C[N+](C)(C)C (configuration not stated) | > 100 µM |
| Cc1ccc(Nc2nc(=O)c3c4ccccc4n(C(=O)OC(C)(C)C)c3s2)cc1 | > 100 µM |
| C[C@@H](CS(C)(=O)=O)Nc1ncc2cc(Oc3ccc(F)cc3F)c(=O)n(C)c2n1 | > 25 µM |
| C=CCC1(O)CC(n2cc(C)c(=O)[nH]c2=O)OC1CO[Si](C)(C)C(C)(C)C (configuration not stated) | > 100 µM |
| CC1OC(OC2C(O[C@H]3CC[C@@H]4C(=CC[C@@H]5[C@@]4(C)C(=O)C[C@]4(C)[C@@H]([C@H](C)CC[C@@H](O)C(C)(C)O)CC[C@@]54C)C3(C)C)OC(CO)C(O)C2O)C(O)C(O)C1O (some centres not stated) | > 100 µM |
| C=CCc1cc(OC)c2c(c1)C(O)CC(c1ccc(OC)c(OC)c1)O2 (configuration not stated) | > 100 µM |
| C[N+](C)(CCCn1ccnc1[N+](=O)[O-])CCCn1ccnc1[N+](=O)[O-] | > 100 µM |
| CC1(C)OC(=O)C(=Cc2ccc(O)cc2)C(=O)O1 | > 100 µM |
| C/C(CCn1[nH]c(=O)ccc1=O)=N\O | > 100 µM |
| CS(=O)(=O)OCCCCOS(=O)(=O)CF | > 100 µM |
| Cc1cc(=O)[nH]c2cc3oc4ccccc4c3cc12 | > 100 µM |
| CCOc1ccccc1-n1c(CN2CCN(C(=O)COc3ccc(CNCCCCCCN4C5CCCC4CC(OC(=O)Nc4cc(C)ccc4OC)C5)cc3)CC2)nc2ccccc2c1=O (configuration not stated) | 3.25 µM |
| CCOC(=O)C(Sc1ccccc1)c1c(OC)cc(=O)oc1/C=[N+](/[O-])c1ccc(N(C)C)cc1 (configuration not stated) | 37 µM |
| O=C(CSC(=S)N1CCCCC1)Nc1nc2c(s1)CCCC2 | > 100 µM |
| CC(=O)OC1COC(n2c(=S)n(-c3ccc(C)cc3)c(=O)c3ccccc32)C(OC(C)=O)C1OC(C)=O (configuration not stated) | > 100 µM |
| CN(C)c1ccc(C2CC(c3ccc4ccccc4c3O)=NN2)cc1 (configuration not stated) | > 100 µM |
